Data provenance is patent US8624002B2.

- assayExplanation: Biotin-PGE2 ELISA (PGE2-biotinamide binding to captured IgG)
- runConditions: Biotin-PGE2 0.1 μM
readoutLabel: Binding to PGE2-Biotinamide (OD450)

[[record]]
molecule = "K7H: human anti-PGE2 antibody from PROfusion mRNA display; VH SEQ ID NO 21, VL SEQ ID NO 24 (antibody, V domains shown) VH: EVQLVQSGSELKKPGASVKVSCKASGYSFTEYGISWVRQAPGQGPEWMGCISPYNGKLHYAQKFLGRVTMTTDTSTNTAYMELRSLKSDDTAVYYCARGGFSSYDSSGYYYVTDHWGQGTLVTVSS VL: DIRLTQSPSSLPASVGDRVTITCRASQSISTYLNWYQQTPGKAPSLLIYAASSLQSGVPSRFSGSGSGTDFTLTISSLQPEDFATYYCQQSYSPPPTFGGGTKVEIKR"
valuemeasured = 0.03

